// note: pKi values for Coagulation factor X (Homo sapiens) were reported in different studies
Answers are plain numbers, as −log10 of the molar value.

{"smilesStructure": "CCOC(=O)C(=O)N(Cc1ccccc1)c1ccc2c(c1)O[C@H](COc1ccc(C(=N)N)cc1)CO2.O=C(O)C(F)(F)F", "numericReadout": 6.20}
{"smilesStructure": "CN(C)Cc1ccccc1-c1ccc(-c2nnc3c(C(F)(F)F)nn(-c4ccc5onc(N)c5c4)c3c2O)cc1", "numericReadout": 8.26}

Attention now turns to another entry.
Inquiry: Endpoint output: pKi of C[C@H]1CN2CC(=O)Nc3ccc(cc3)C[C@@H](C(=O)NCc3ccc(C(=N)N)cc3)NC(=O)[C@H](NS(=O)(=O)Cc3ccccc3)Cc3ccc(cc3)CNC(=O)CN1C[C@@H]2C . Value?
Reply text: 5.49

====

Kindly find below log10(Ki) information for Coagulation factor X (Homo sapiens, UniProt P00742) taken from the literature.
Base-10 log of Ki, unit nM.

Example entries begin here.
{"molecule": "c1ccc(-n2cnnn2)c(Cc2nc3c(NCCC4CCCCN4)nccc3o2)c1 (configuration not stated)", "log10(Ki)": 0.85}
{"molecule": "N=C(N)c1cccc(-n2nc(C(F)(F)F)cc2C(=O)Nc2ccc(N3C(=O)N=C4C=CC=CC43)cc2)c1 (configuration not stated)", "log10(Ki)": -1.30}
{"molecule": "C[C@@H](C(=O)N1CCOCC1)N1CC[C@H](NS(=O)(=O)c2cc3ccc(Cl)cc3[nH]2)C1=O", "log10(Ki)": 2.23}
{"molecule": "COc1ccc2ccc(S(=O)(=O)N[C@H]3CCN(Cc4ccc(C(=N)N)cc4)C3=O)cc2c1", "log10(Ki)": 2.99}
{"molecule": "N=C(N)c1ccc(OC[C@@H]2COc3cc(N(Cc4ccccc4)C(=O)C(=O)O)ccc3O2)cc1", "log10(Ki)": 3.72}
{"molecule": "Clc1ccc(-n2cncn2)c(Cc2nc3c(NCCC4CCCCN4Cc4ccccc4)nccc3o2)c1 (configuration not stated)", "log10(Ki)": 0.57}
{"molecule": "Nc1ccc(N2CCC(C(=O)Nc3cccc(OCc4ccc(F)cc4)c3)CC2)cc1", "log10(Ki)": 4.80}
{"molecule": "COC(=O)[C@H]1CCCCC1NNC(=O)[C@H](Cc1ccccc1)c1csc2ccc(C(=N)N)cc12 (some centres not stated)", "log10(Ki)": 2.43}

// batch mode: one log10(Ki) value per listed entry
1. CC(=N)N1CCC(Oc2ccc3cc(C(=O)NC(CC(=O)O)C(=O)O)n(Cc4ccc5ccc(C(=N)N)cc5c4)c3c2)CC1 (configuration not stated)
2. Cc1ccc(NS(=O)(=O)Cc2cccc(C(F)(F)F)c2)c(=O)n1CC(=O)NCC1CCc2n[nH]cc2C1 (configuration not stated)
3. COc1ccc(-n2nc(S(C)(=O)=O)c3c2C(=O)N(c2ccc(C(C)(C)CN4CCCC4)cc2)CC3)cc1
4. O=C(Nc1ccc(Cl)cc1)c1cc(Cl)ccc1NC(=O)c1sc(Cn2ccnc2)cc1Cl
5. Cc1cc(C(=O)Nc2ccc(-c3ccccc3S(C)(=O)=O)cc2)n(-c2cccc(C(=N)N)c2)n1

Reply text:
[1.30, 5.40, -0.62, 0.86, -2.10]

Need log10(Ki) for each of these molecules.
1. CS(=O)(=O)c1ccccc1-c1ccc2c(c1)N(C(=O)c1cc(C(N)=O)nn1-c1ccc3onc(N)c3c1)CC2
2. CS(=O)(=O)c1ccccc1-c1ccc(NC(=O)c2cc(C(F)(F)F)nn2-c2ccccc2CNCc2ccccc2)c(F)c1

Reply text:
3.15
1.79

Inquiry: Could you share which log10(Ki) value was measured for N=C(N)c1cccc(C[C@H](NS(=O)(=O)c2ccc3ccccc3c2)C(=O)N2CCNCC2)c1 ?
Reply text: 4.32
